Origin of values: PubChem BioAssay (NCI)

system: HL-60(TB) leukemia; assay: NCI-60 one-dose screen, 48 h; details: 10 µM unless noted
This is part of a sample that, as a whole, favours compounds with a hit. Of some 83,000 tested, about 20% had one in any assay. Activity calls are given as the source filed them. How the source made its calls: active means growth percent below 10; inactive means the rest.
Outcome codes: yes (1) (active), no (0) (inactive)

{"molecule": "NC(N)=Nc1ccc(/C=C2\\C=Cc3ccccc32)cc1", "classLabel": "no (0)"}
{"molecule": "CCCn1c(=S)sc2c(Cl)nc(C)nc21", "classLabel": "no (0)"}
{"molecule": "Fc1ccc(C(c2ccc(F)cc2)C(Cl)Cl)cc1", "classLabel": "no (0)"}
{"molecule": "NS(=O)(=O)c1cn(-c2ncnc3nc[nH]c23)ccc1=O", "classLabel": "no (0)"}
{"molecule": "COc1cc(C#Cc2ccc(=O)oc2C#Cc2ccccc2)cc(OC)c1OC", "classLabel": "no (0)"}
{"molecule": "CNC=O", "classLabel": "no (0)"}
{"molecule": "COc1ccc(/C=C(\\C#N)c2cc3ccccc3n2S(C)(=O)=O)cc1", "classLabel": "no (0)"}
{"molecule": "CCCCn1c(-c2cccc(OC)c2)nc2cc(OC)c(OC)cc2c1=O", "classLabel": "no (0)"}
{"molecule": "Cc1ccc(C2CC(c3cccs3)=NN2c2ccc(S(N)(=O)=O)cc2)s1 (configuration not stated)", "classLabel": "no (0)"}
{"molecule": "CC[C@H](C)[C@H](N)C(=O)O", "classLabel": "no (0)"}
{"molecule": "Brc1ccc(/C=C(/C2=NCCN2)n2ccc3ccccc32)cc1", "classLabel": "no (0)"}
{"molecule": "Cc1nc2c(c(=O)[nH]1)OCN(Cc1ccccc1)C2", "classLabel": "no (0)"}
{"molecule": "Nc1c(Cl)cccc1[N+](=O)[O-]", "classLabel": "no (0)"}
{"molecule": "Cc1cc[c-]cc1.Fc1c[c-]c(-c2ccccn2)c(F)c1.[Pt+2].c1ccc(P(C[PH+](c2ccccc2)c2ccccc2)c2ccccc2)cc1", "classLabel": "yes (1)"}
{"molecule": "COc1cc(C(=O)N(C(C)C)C2CCCCC2)cc(OC)c1OC", "classLabel": "no (0)"}
{"molecule": "C#CC(F)(F)[C@]1(O)CC[C@H]2[C@@H]3CCC4=CC(=O)CCC4=C3[C@@H](c3ccc(C4CC4)cc3)C[C@@]21C", "classLabel": "yes (1)"}
{"molecule": "O=C(Nc1ncc(Cc2ccccc2)s1)c1ccc2c(c1)OCCCO2", "classLabel": "no (0)"}
{"molecule": "Cn1cc(-c2csc(-c3cccc(F)c3)n2)c2cccnc21", "classLabel": "yes (1)"}
{"molecule": "O=C(Nc1ccccc1)Nc1ncnc2c1ncn2-c1ccccc1", "classLabel": "no (0)"}
{"molecule": "Cc1nc(/N=C(\\N)NC(=O)Nc2cccc(Cl)c2)sc1C", "classLabel": "no (0)"}
{"molecule": "CCOc1ccccc1/C=N/Nc1nc2ccccc2o1", "classLabel": "no (0)"}
{"molecule": "CCC(CC)n1c(C)cc(=O)n1C(CC)CC", "classLabel": "no (0)"}
{"molecule": "Clc1ccc2[nH]cc(-c3cncn3CCc3ccccc3)c2c1", "classLabel": "no (0)"}
{"molecule": "COc1ccc(-c2cc(-c3ccccc3)nc(SCCCC(=O)NO)n2)cc1OC", "classLabel": "yes (1)"}
{"molecule": "CCn1cc(C(=O)O)c(=O)c2cc(F)c(N3CCN(S(=O)(=O)c4cccc5ccccc45)CC3)cc21", "classLabel": "yes (1)"}
{"molecule": "CCCC(=O)OCC1OC(n2cnc3c(=S)nc[nH]c32)C(OC(=O)CCC)C1OC(=O)CCC (configuration not stated)", "classLabel": "no (0)"}
{"molecule": "FC(F)(F)Oc1cccc(-c2cnc3ccc(-c4ccncc4)nn23)c1", "classLabel": "yes (1)"}
{"molecule": "C[CH2][Pb]([CH2]C)([CH2]C)[O]C(=O)c1ccc(N)cc1", "classLabel": "no (0)"}
{"molecule": "Cc1ccc(-c2nc3nc(-c4ccccc4)nc(N4CCN(S(=O)(=O)c5ccccc5)CC4)c3o2)cc1", "classLabel": "no (0)"}
{"molecule": "c1ccc(-c2nc3ccccc3[nH]2)c(OCCCCCOc2ccccc2-c2nc3ccccc3[nH]2)c1", "classLabel": "no (0)"}
{"molecule": "Cc1ccc2cc3c(N)c4c(C)ccc(C)c4nc3nc2c1", "classLabel": "no (0)"}
{"molecule": "CCCCCCOc1ccc(/C=C/C(=O)c2ccc(B(O)O)cc2)cc1", "classLabel": "no (0)"}
{"molecule": "Nc1ccc(Br)cn1", "classLabel": "no (0)"}
{"molecule": "CCc1ccc(-c2nnc(COc3ccc(-c4nc5cc(Cl)c(Cl)cc5[nH]4)cc3OC)o2)cc1", "classLabel": "no (0)"}
{"molecule": "Nc1nc(N)c2cc(Sc3ccc4ccccc4c3)ccc2n1", "classLabel": "no (0)"}
{"molecule": "Clc1ccc(Nc2nc(Nc3ccc(Cl)cc3)nc(Nc3ccc(-c4cc(-c5cccc(Cl)c5)on4)cc3)n2)cc1", "classLabel": "yes (1)"}
{"molecule": "COc1ccc(NC(=O)c2ccc(/C=C/C(=O)c3ncc[nH]3)cc2)cc1", "classLabel": "no (0)"}
